Measurement Target: h-TGR5 (Homo sapiens, UniProt Q8TDU6)
Construct: expressed in transfected cells
Sequence (Q8TDU6 whole entry): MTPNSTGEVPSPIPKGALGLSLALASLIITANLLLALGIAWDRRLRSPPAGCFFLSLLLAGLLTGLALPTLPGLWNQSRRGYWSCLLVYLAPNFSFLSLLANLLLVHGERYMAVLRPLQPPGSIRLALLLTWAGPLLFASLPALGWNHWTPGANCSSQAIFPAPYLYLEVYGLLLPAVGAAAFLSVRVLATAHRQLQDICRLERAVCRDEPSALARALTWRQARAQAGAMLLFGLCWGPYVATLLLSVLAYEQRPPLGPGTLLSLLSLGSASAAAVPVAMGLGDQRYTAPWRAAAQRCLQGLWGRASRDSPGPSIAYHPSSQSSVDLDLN
Test Details: TGR5 cAMP Assay using Cisbio cAMP Dynamic2 htrf kit (hTGR5CRE-luc HEK 293 cells)
Format: cell-based
Protocol Conditions: h-TGR5 cAMP EC50, Table 1; read-out: cAMP (EC50)
pEC50: −log10 of the molar value.
pEC50 reference

{"Entry Smiles": "CC(C)(c1ccc(Cl)c(Cl)c1)c1cnc(SCc2c(F)cc(C(=O)NO)cc2F)n1-c1ccc(F)cc1", "pEC50": "> 7.00"}
{"Entry Smiles": "COc1cc(-n2c(C(C)(C)c3ccc(F)c(F)c3)cnc2SCc2ccc(S(=O)(=O)NC(=O)NN3CCCC3)cc2Cl)ccc1F", "pEC50": "6.00 to 7.00"}
{"Entry Smiles": "COc1ccc(C(C)(C)c2cnc(SCc3ccc(S(=O)(=O)NC(=O)NN4CCCC4)cc3Cl)n2-c2ccc(F)c(C)c2)cc1Cl", "pEC50": "6.00 to 7.00"}
{"Entry Smiles": "COc1cc(C(C)(C)c2cnc(SCc3c(F)cc(NC(=O)[C@@H](N)CC(=O)O)cc3Cl)n2-c2ccc(F)cc2)ccc1Cl", "pEC50": "> 7.00"}
{"Entry Smiles": "COc1cc(C(C)(C)c2cnc(SCc3c(F)cc(OCCNC(=N)N)cc3Cl)n2-c2ccc(F)cc2)ccc1F", "pEC50": "> 7.00"}
